Study System: Chymotrypsinogen A (Bos taurus, UniProt P00766)
Experimental Readout: Ki (nM)
A number alone suffices; assume nM.

Sample answers from the record:
* CCCCCCC(NC(=O)c1ccc(C#N)cc1)C(C)(C)C(=O)N[C@@H](Cc1ccccc1)C(=O)OCC (stereo in doubt; 3) | 4.5
* CCCCCCC(NC(=O)c1ccc(C#N)cc1)C(C)(C)C(=O)N[C@@H](Cc1ccccc1)C(=O)OC (some centres undefined) | 12000
* CCCCCCC(NC(=O)c1ccc(C#N)cc1)C(C)(C)C(=O)N[C@@H](Cc1ccccc1)C(=O)OC(C)C (some centres undefined) | 70

# ---- query molecule ----
For the molecule CCCCCCC(NC(=O)c1ccc(C#N)cc1)C(C)(C)C(=O)N[C@@H](Cc1ccccc1)C(=O)OCCC (some centres undefined) , report Ki. 340
